B1: CPEB3 Ribozyme (parent)
chain: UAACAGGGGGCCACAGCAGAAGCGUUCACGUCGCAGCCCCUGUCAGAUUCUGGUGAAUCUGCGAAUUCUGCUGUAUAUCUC

# Variants of: B1
# TEST SUMMARY: self-cleavage, relative activity (ratio to wild type); higher = more cleavage; in vitro, sequencing
Field: self-cleavage. Provide a value for each of the variants that follow.
Number only, please.

So for C62U C79G , the logged self-cleavage turned out to be 0.2

So for U51G U74A , the logged self-cleavage turned out to be 1.14

So for U26C U51C , the logged self-cleavage turned out to be 0.44

So for G22U A75G , the logged self-cleavage turned out to be 0.39

So for U60G A64U , the logged self-cleavage turned out to be 0.21

So for G7U G42U , the logged self-cleavage turned out to be 0.14

So for A35U A77G , the logged self-cleavage turned out to be 0.57

So for A18G C29A , the logged self-cleavage turned out to be 0.26

So for A45G A75C , the logged self-cleavage turned out to be 1.01

So for C14A G24C , the logged self-cleavage turned out to be 0.15

So for U51G U78C , the logged self-cleavage turned out to be 0.97

So for A45U C62U , the logged self-cleavage turned out to be 0.31

So for A21U U58C , the logged self-cleavage turned out to be 0.12

So for C12U U78C , the logged self-cleavage turned out to be 1.23

So for U54C A57U , the logged self-cleavage turned out to be 0.56

So for A64U U66A , the logged self-cleavage turned out to be 0.27

So for U25C U51C , the logged self-cleavage turned out to be 0.26

So for A20G U80G , the logged self-cleavage turned out to be 1.14

So for A3C C17U , the logged self-cleavage turned out to be 0.54

So for U54G C68U , the logged self-cleavage turned out to be 0.68

So for A2G C37A , the logged self-cleavage turned out to be 0.27

So for A57U U58G , the logged self-cleavage turned out to be 0.1

The reported numbers originate from the RNAGym collection of RNA variant scans (doi:10.1093/nar/gkz1192).
